target: Protein deacetylase HDAC6 (Homo sapiens) (UniProt Q9UBN7); settings: at 10 µM
Sequence (Q9UBN7 whole entry): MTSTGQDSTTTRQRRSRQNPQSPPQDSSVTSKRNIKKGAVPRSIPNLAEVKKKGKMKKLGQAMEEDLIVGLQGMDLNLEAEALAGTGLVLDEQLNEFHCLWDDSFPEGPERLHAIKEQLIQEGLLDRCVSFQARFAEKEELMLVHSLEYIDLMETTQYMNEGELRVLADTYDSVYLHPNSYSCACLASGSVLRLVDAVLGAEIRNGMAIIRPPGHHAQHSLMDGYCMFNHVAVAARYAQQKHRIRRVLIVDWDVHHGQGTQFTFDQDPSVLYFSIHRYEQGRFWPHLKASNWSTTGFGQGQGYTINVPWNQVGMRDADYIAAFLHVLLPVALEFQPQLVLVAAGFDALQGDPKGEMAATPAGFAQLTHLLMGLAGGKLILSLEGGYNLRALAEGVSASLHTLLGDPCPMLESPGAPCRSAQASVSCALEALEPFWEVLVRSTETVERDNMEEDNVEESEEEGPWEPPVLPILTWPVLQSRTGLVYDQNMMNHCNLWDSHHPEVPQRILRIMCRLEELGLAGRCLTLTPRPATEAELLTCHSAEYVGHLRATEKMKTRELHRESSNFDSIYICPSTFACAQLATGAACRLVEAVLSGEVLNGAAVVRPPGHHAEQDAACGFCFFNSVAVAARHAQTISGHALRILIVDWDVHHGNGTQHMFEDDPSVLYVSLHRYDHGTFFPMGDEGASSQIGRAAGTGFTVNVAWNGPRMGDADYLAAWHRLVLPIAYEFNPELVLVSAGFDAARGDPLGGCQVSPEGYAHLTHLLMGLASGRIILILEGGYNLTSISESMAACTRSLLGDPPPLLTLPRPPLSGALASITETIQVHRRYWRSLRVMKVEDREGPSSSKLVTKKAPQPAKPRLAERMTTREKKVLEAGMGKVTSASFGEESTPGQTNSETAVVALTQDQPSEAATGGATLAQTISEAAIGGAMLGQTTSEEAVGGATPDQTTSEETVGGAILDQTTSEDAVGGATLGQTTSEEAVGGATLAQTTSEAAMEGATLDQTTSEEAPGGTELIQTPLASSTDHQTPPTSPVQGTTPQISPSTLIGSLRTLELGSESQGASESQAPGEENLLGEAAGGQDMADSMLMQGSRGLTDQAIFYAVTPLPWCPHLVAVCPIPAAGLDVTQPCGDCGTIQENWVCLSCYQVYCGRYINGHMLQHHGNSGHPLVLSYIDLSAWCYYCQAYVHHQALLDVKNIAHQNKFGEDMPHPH
The campaign covered roughly 5,600 compounds. About 390 (7%) showed an effect of 50% or more. Shown is part of a subset that was picked to be rich in strong results.
Outcome measure: inhibition (%)
Please state the figure in %; there is no need to write the unit.

Past entries and their recorded results:
O=C1c2ccccc2-n2c1nc1ccccc1c2=O ... 104
C=C1NC[C@H](O)[C@@H](C(=O)O)N1 ... -0.94
CC(=O)N[C@@H](CSC/C=C(\C)CC/C=C(\C)CCC=C(C)C)C(=O)O ... 19.5
NC(=O)C1=CN([C@@H]2O[C@H](COP(=O)(O)OP(=O)(O)OC[C@H]3O[C@@H](n4cnc5c(N)ncnc54)[C@H](OP(=O)(O)O)[C@@H]3O)[C@@H](O)[C@H]2O)C=CC1 ... 28.1
CCCCCCCCCCCCCC[C@@H](O)[C@@H](O)[C@@H](N)CO ... 0.56

Query: inhibition; subject: "COc1cc(C[C@H]2c3cc(OC)c(OC)cc3CCN2C)c(Oc2cc3c(cc2OC)-c2c(OC)c(OC)cc4c2[C@H](C3)N(C)CC4)cc1OC" 33.6

Try this molecule next: "O=C1N=C(NCc2cccs2)S/C1=C\c1ccc2ncccc2c1" 68.2

Try this molecule next: "CCN(CC)CC1CCN(c2ncc3ncnc(Nc4ccc(F)c(Cl)c4)c3n2)CC1" 22.9

Try this molecule next: "Cn1c(=O)n(-c2ccc(C(C)(C)C#N)cc2)c2c3cc(-c4cnc5ccccc5c4)ccc3ncc21" -9.93

These entries and their values trace back to ChEMBL document CHEMBL4808148.
